ASSAY: Half-lives and pharmacokinetic parameters of polypeptides vs HM-1
CONDITION_CONTEXT: in vivo
Peptide text beside a SMILES is read from it. * marks the point of attachment. X58 = O=C1C=CC(=O)N1c1cccc(CCCCCCCCCCCC(=O)*)c1; X59 = O=C1C=CC(=O)N1c1cccc(CCCCCCCCC(=O)*)c1; X71 = O=C1C=CC(=O)N1c1cccc(CCCCCC(=O)*)c1
ENDPOINT_LABEL: AUC(0-inf) (µg·h/mL)
Give your result in µg·h/mL as a bare value.

Q: Specify reported AUC(0-inf) for the compound shown: C[C@H](NC(=O)CNC(=O)[C@H](CCCNC(=N)N)NC(=O)CCCCCCCCCCCc1cccc(N2C(=O)C=CC2=O)c1)C(=O)N[C@@H](CC(=O)O)C(=O)N[C@@H](CCCNC(=N)N)C(=O)N[C@@H](C)C(=O)NCC(=O)NCC(=O)NCC(=O)NCC(=O)N[C@@H](CCCNC(=N)N)C(=O)NCC(=O)N[C@@H](CC(=O)O)C(=O)O [X35] (X58-RGADRAGGGGRGD-OH)
A: 31.9

Q: Specify reported AUC(0-inf) for the compound shown: C[C@H](NC(=O)CNC(=O)[C@H](CCCNC(=N)N)NC(=O)CCCCCc1cccc(N2C(=O)C=CC2=O)c1)C(=O)N[C@@H](CC(=O)O)C(=O)N[C@@H](CCCNC(=N)N)C(=O)N[C@@H](C)C(=O)NCC(=O)NCC(=O)NCC(=O)NCC(=O)N[C@@H](CCCNC(=N)N)C(=O)NCC(=O)N[C@@H](CC(=O)O)C(=O)O [X29] (X71-RGADRAGGGGRGD-OH)
A: 32.1

Q: Specify reported AUC(0-inf) for the compound shown: C[C@H](NC(=O)CNC(=O)[C@H](CCCNC(=N)N)NC(=O)CCCCCCCCc1cccc(N2C(=O)C=CC2=O)c1)C(=O)N[C@@H](CC(=O)O)C(=O)N[C@@H](CCCNC(=N)N)C(=O)N[C@@H](C)C(=O)NCC(=O)NCC(=O)NCC(=O)NCC(=O)N[C@@H](CCCNC(=N)N)C(=O)NCC(=O)N[C@@H](CC(=O)O)C(=O)O [X32] (X59-RGADRAGGGGRGD-OH)
A: 30.9

====

Tested on: choroidal neovascularization
ASSAY: Choroidal neovascularization in rats (laser photocoagulation, FFA)
Assay type: in vivo
CONDITION_CONTEXT: day 28 after administration, total light spot number was 69, 0.05 μM in the vitreous chamber once a day for 1 week, BN rats
Procedure: 6-8 weeks male BN rats were fully anesthetized by intraperitoneal injection of 846 compound anesthetic with a concentration of 0.5 mL/kg. Compound tropicamide eye drops were used once 5 min before laser photocoagulation to fully dilate the pupils of both eyes. The animals were fixed and subjected to krypton laser photocoagulation equidistantly around an optic disc with the aid of a −53.00D corneal contact lens at a distance of 2PD from the optic disc. […]
Peptide text beside a SMILES is read from it. * marks the point of attachment. X65 = O=C1C=CC(=O)N1c1cccc(CCCCCCCCCCCCC(=O)*)c1; X68 = O=C1C=CC(=O)N1c1ccccc1CCCCCCCCCCCC(=O)*; X72 = O=C1C=CC(=O)N1c1ccccc1CCCCCCCCCCC(=O)*; X55 = O=C1C=CC(=O)N1c1ccccc1CCCCCCCCC(=O)*; X71 = O=C1C=CC(=O)N1c1cccc(CCCCCC(=O)*)c1; X63 = O=C1C=CC(=O)N1c1ccccc1CCCCCCC(=O)*
Catalogue of Leakage Light spot number values
Give the value as a plain number.

Solved entries (count: 2):
C[C@H](NC(=O)CNC(=O)[C@H](CCCNC(=N)N)NC(=O)CCCCCCc1ccccc1N1C(=O)C=CC1=O)C(=O)N[C@@H](CC(=O)O)C(=O)N[C@@H](CCCNC(=N)N)C(=O)N[C@@H](C)C(=O)NCC(=O)NCC(=O)NCC(=O)NCC(=O)N[C@@H](CCCNC(=N)N)C(=O)NCC(=O)N[C@@H](CC(=O)O)C(=O)O [X18] (X63-RGADRAGGGGRGD-OH)    31
C[C@H](NC(=O)CNC(=O)[C@H](CCCNC(=N)N)NC(=O)CCCCCCCCCCCc1ccccc1N1C(=O)C=CC1=O)C(=O)N[C@@H](CC(=O)O)C(=O)N[C@@H](CCCNC(=N)N)C(=O)N[C@@H](C)C(=O)NCC(=O)NCC(=O)NCC(=O)NCC(=O)N[C@@H](CCCNC(=N)N)C(=O)NCC(=O)N[C@@H](CC(=O)O)C(=O)O [X23] (X68-RGADRAGGGGRGD-OH)    26

Q: Specify reported Leakage Light spot number for the molecule shown: C[C@H](NC(=O)CNC(=O)[C@H](CCCNC(=N)N)NC(=O)CCCCCCCCc1ccccc1N1C(=O)C=CC1=O)C(=O)N[C@@H](CC(=O)O)C(=O)N[C@@H](CCCNC(=N)N)C(=O)N[C@@H](C)C(=O)NCC(=O)NCC(=O)NCC(=O)NCC(=O)N[C@@H](CCCNC(=N)N)C(=O)NCC(=O)N[C@@H](CC(=O)O)C(=O)O [X20] (X55-RGADRAGGGGRGD-OH)
A: 27

Q: Specify reported Leakage Light spot number for the molecule shown: C[C@H](NC(=O)CNC(=O)[C@H](CCCNC(=N)N)NC(=O)CCCCCCCCCCc1ccccc1N1C(=O)C=CC1=O)C(=O)N[C@@H](CC(=O)O)C(=O)N[C@@H](CCCNC(=N)N)C(=O)N[C@@H](C)C(=O)NCC(=O)NCC(=O)NCC(=O)NCC(=O)N[C@@H](CCCNC(=N)N)C(=O)NCC(=O)N[C@@H](CC(=O)O)C(=O)O [X22] (X72-RGADRAGGGGRGD-OH)
A: 26

Q: Specify reported Leakage Light spot number for the molecule shown: C[C@H](NC(=O)CNC(=O)[C@H](CCCNC(=N)N)NC(=O)CCCCCc1cccc(N2C(=O)C=CC2=O)c1)C(=O)N[C@@H](CC(=O)O)C(=O)N[C@@H](CCCNC(=N)N)C(=O)N[C@@H](C)C(=O)NCC(=O)NCC(=O)NCC(=O)NCC(=O)N[C@@H](CCCNC(=N)N)C(=O)NCC(=O)N[C@@H](CC(=O)O)C(=O)O [X29] (X71-RGADRAGGGGRGD-OH)
A: 27

Q: Specify reported Leakage Light spot number for the molecule shown: C[C@H](NC(=O)CNC(=O)[C@H](CCCNC(=N)N)NC(=O)CCCCCCCCCCCCc1cccc(N2C(=O)C=CC2=O)c1)C(=O)N[C@@H](CC(=O)O)C(=O)N[C@@H](CCCNC(=N)N)C(=O)N[C@@H](C)C(=O)NCC(=O)NCC(=O)NCC(=O)NCC(=O)N[C@@H](CCCNC(=N)N)C(=O)NCC(=O)N[C@@H](CC(=O)O)C(=O)O [X36] (X65-RGADRAGGGGRGD-OH)
A: 30

====

Test system: corneal neovascularization
ASSAY: Corneal neovascularization induced by alkali burn in BALB/c mice
Assay type: in vivo
Design: concentration or dose not given beside the values
CONDITION_CONTEXT: day 14 after alkali burn, vitreous injection once a day for 1 week
Peptide text beside a SMILES is read from it. * marks the point of attachment. X84 = O=C1C=CC(=O)N1c1ccccc1CCCCCCCCCCCCC(=O)*; X68 = O=C1C=CC(=O)N1c1ccccc1CCCCCCCCCCCC(=O)*
ENDPOINT_LABEL: Inhibition rate (corneal neovascularization)

C[C@H](NC(=O)CNC(=O)[C@H](CCCNC(=N)N)NC(=O)CCCCCCCCCCCCc1ccccc1N1C(=O)C=CC1=O)C(=O)N[C@@H](CC(=O)O)C(=O)N[C@@H](CCCNC(=N)N)C(=O)N[C@@H](C)C(=O)NCC(=O)NCC(=O)NCC(=O)NCC(=O)N[C@@H](CCCNC(=N)N)C(=O)NCC(=O)N[C@@H](CC(=O)O)C(=O)O [X24] (X84-RGADRAGGGGRGD-OH)    46.24%

Read the next record carefully.
Q: Specify reported Inhibition rate (corneal neovascularization) for the molecule shown: C[C@H](NC(=O)CNC(=O)[C@H](CCCNC(=N)N)NC(=O)CCCCCCCCCCCc1ccccc1N1C(=O)C=CC1=O)C(=O)N[C@@H](CC(=O)O)C(=O)N[C@@H](CCCNC(=N)N)C(=O)N[C@@H](C)C(=O)NCC(=O)NCC(=O)NCC(=O)NCC(=O)N[C@@H](CCCNC(=N)N)C(=O)NCC(=O)N[C@@H](CC(=O)O)C(=O)O [X23] (X68-RGADRAGGGGRGD-OH)
A: 46.95%

====

Catalogue of Inhibition rate (%) values
Tested on: human retinal capillary endothelial cells (HRCECs)
ASSAY: MTT proliferation inhibition on HRCECs
Type: cell-based
CONDITION_CONTEXT: 48 h, dose 0.2 μM
Peptide text beside a SMILES is read from it. * marks the point of attachment. X74 = O=C1C=CC(=O)N1c1cccc(CCCCCCCCCCC(=O)*)c1; X64 = O=C1C=CC(=O)N1c1cccc(CCCCCCCCCC(=O)*)c1; X59 = O=C1C=CC(=O)N1c1cccc(CCCCCCCCC(=O)*)c1
Give your result in %* as a bare value.

Solved entries (count: 2):
C[C@H](NC(=O)CNC(=O)[C@H](CCCNC(=N)N)NC(=O)CCCCCCCCCCc1cccc(N2C(=O)C=CC2=O)c1)C(=O)N[C@@H](CC(=O)O)C(=O)N[C@@H](CCCNC(=N)N)C(=O)N[C@@H](C)C(=O)NCC(=O)NCC(=O)NCC(=O)NCC(=O)N[C@@H](CCCNC(=N)N)C(=O)NCC(=O)N[C@@H](CC(=O)O)C(=O)O [X34] (X74-RGADRAGGGGRGD-OH)    59.92
C[C@H](NC(=O)CNC(=O)[C@H](CCCNC(=N)N)NC(=O)CCCCCCCCc1cccc(N2C(=O)C=CC2=O)c1)C(=O)N[C@@H](CC(=O)O)C(=O)N[C@@H](CCCNC(=N)N)C(=O)N[C@@H](C)C(=O)NCC(=O)NCC(=O)NCC(=O)NCC(=O)N[C@@H](CCCNC(=N)N)C(=O)NCC(=O)N[C@@H](CC(=O)O)C(=O)O [X32] (X59-RGADRAGGGGRGD-OH)    69.51

Read the next record carefully.
Q: Specify reported Inhibition rate (%) for the compound shown: C[C@H](NC(=O)CNC(=O)[C@H](CCCNC(=N)N)NC(=O)CCCCCCCCCc1cccc(N2C(=O)C=CC2=O)c1)C(=O)N[C@@H](CC(=O)O)C(=O)N[C@@H](CCCNC(=N)N)C(=O)N[C@@H](C)C(=O)NCC(=O)NCC(=O)NCC(=O)NCC(=O)N[C@@H](CCCNC(=N)N)C(=O)NCC(=O)N[C@@H](CC(=O)O)C(=O)O [X33] (X64-RGADRAGGGGRGD-OH)
A: 62.24
